Experiment Notes: protein stability index of a GFP-peptide fusion (GPS, HEK-293T) (PSI 1-6); higher = more stable;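 note: 24-mer peptide tiles fused after GFP, lentivirally expressed, FACS-sorted into six equal bins by GFP/DsRed ratio, decoded by Illumina sequencing, PSI is the read-weighted mean bin number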
Condition: treatment: MLN4924 1 uM, 8 h; c terminus: a fixed tail appended
Here the recorded protein stability index is given for each entry.

[
  {
    "Sequence Chain": "KGNREDSARMSAGLPGPEAARSGD [PLEKHN1]",
    "protein stability index": 5.39
  },
  {
    "Sequence Chain": "RDLALVSRDGMNIVLNKINQILME [INTS3]",
    "protein stability index": 2.69
  },
  {
    "Sequence Chain": "TESYIARPDGDCASSLNGGNIKGI [ZC2HC1A]",
    "protein stability index": 4.24
  },
  {
    "Sequence Chain": "PSMVSGGYVANSSNCISGVCSVRG [KRT71]",
    "protein stability index": 3.4
  },
  {
    "Sequence Chain": "EGYVWRGSQLEDQALRGLEGYTWR [ZSWIM9]",
    "protein stability index": 2.67
  },
  {
    "Sequence Chain": "YGEFYKSLTNDWEDHLAVKHFSVE [HSP90AB1]",
    "protein stability index": 2.87
  },
  {
    "Sequence Chain": "AERYKLERLAEAEKSQLIMQAEAE [FLOT1]",
    "protein stability index": 5
  },
  {
    "Sequence Chain": "FRIYKSVIQAVQKSEEGHPFKAYL [RTN3]",
    "protein stability index": 2.29
  },
  {
    "Sequence Chain": "TRTGPSAWETKKILAVSFAPLIQP [PCMTD2]",
    "protein stability index": 2.31
  },
  {
    "Sequence Chain": "HNRSNNKYSYTSTSDDNLLKNIEL [KCTD13]",
    "protein stability index": 3.73
  },
  {
    "Sequence Chain": "EVELAYQEAMFNMATLNRTAAGLM [SEPHS2]",
    "protein stability index": 2.56
  },
  {
    "Sequence Chain": "VENNRRDVEAWFNTQTEELNQQVV [KRT36]",
    "protein stability index": 4.65
  },
  {
    "Sequence Chain": "RYCQCNPDDSTSEDGIHTLTCALM [PSD2]",
    "protein stability index": 4.09
  },
  {
    "Sequence Chain": "LLAAQVQLQCSPAELQAELLHSQA [FBF1]",
    "protein stability index": 2.42
  },
  {
    "Sequence Chain": "RSHEGETAYIRVKVDGPRSPSYGR [SRSF1]",
    "protein stability index": 3.73
  },
  {
    "Sequence Chain": "LGNVLFSPICLSTSLSLAQVGAKG [SERPINB5]",
    "protein stability index": 2.12
  },
  {
    "Sequence Chain": "TMARALGRFKLSIPHTHLLATLDP [WDR88]",
    "protein stability index": 2.21
  },
  {
    "Sequence Chain": "THVTLLITVTQSHLVIQNLFEGMI [CDS1]",
    "protein stability index": 3.22
  },
  {
    "Sequence Chain": "ALLKFREDEGFVREEEDRALPENE [KCNA4]",
    "protein stability index": 5.43
  }
]

* * *

Here the recorded protein stability index is given for each entry.
Experiment Notes: protein stability index of a GFP-peptide fusion (GPS, HEK-293T) (PSI 1-6); higher = more stable
Condition: treatment: DMSO; c terminus: a fixed tail appended
Measured Property: protein stability index

[
  {
    "Sequence Chain": "YFRHADPTWQNSIRHNLSLNKCFI [FOXJ1]",
    "Result": 2.45
  },
  {
    "Sequence Chain": "TVASEAKIQLSDSEAKSHSSADDA [FAN1]",
    "Result": 5.46
  },
  {
    "Sequence Chain": "MEEVCGGEKPYLSPDILEEKHCEF [ATL3]",
    "Result": 5.15
  },
  {
    "Sequence Chain": "KGTILYLQKDEYRPDKALSEGDLK [PSD2]",
    "Result": 3.99
  },
  {
    "Sequence Chain": "KYLKLQDTCRTQLVWLVRELVKSG [INTS3]",
    "Result": 2.94
  },
  {
    "Sequence Chain": "LPTVGGQLGTAGQGFSYSKSNGRG [MYOZ1]",
    "Result": 4.3
  },
  {
    "Sequence Chain": "PWEPPVLPILTWPVLQSRTGLVYD [HDAC6]",
    "Result": 3.46
  },
  {
    "Sequence Chain": "VCDSCYDSIKDEDRTSLATFHEGK [WDFY1]",
    "Result": 4.62
  },
  {
    "Sequence Chain": "WAAPRVGPLPPAPAMVRISKPKTF [YPEL3]",
    "Result": 3.15
  },
  {
    "Sequence Chain": "QQPPRLLIVHIALPSWADICTNLC [M1AP]",
    "Result": 3
  },
  {
    "Sequence Chain": "GPYEGGGPVAGLDDSGGPTPSSYA [ZBTB22]",
    "Result": 4.95
  },
  {
    "Sequence Chain": "REKTNICYLSFPDSNSGCLGDTQF [DENND6A]",
    "Result": 2.88
  },
  {
    "Sequence Chain": "AGDGDTSNFETYPENDWDTAAPVP [PRKX]",
    "Result": 5.33
  },
  {
    "Sequence Chain": "YSFISLFIYMVLSLFIALITGAYD [MCOLN1]",
    "Result": 3.14
  },
  {
    "Sequence Chain": "AQTLLRLSGVQRVESVFFGGGTPS [RSAD1]",
    "Result": 2.43
  },
  {
    "Sequence Chain": "ECLKRQGQREPGSLSRNNSFRRNV [FBXO34]",
    "Result": 4.11
  },
  {
    "Sequence Chain": "HTNCFELSIYVGCDKYPHESQLPE [CPXM2]",
    "Result": 2.54
  },
  {
    "Sequence Chain": "YYTTMQTLTKQDTMLKAMFSGRME [KCTD10]",
    "Result": 2.4
  },
  {
    "Sequence Chain": "EEEPTGAGLNKDKETEERTDGERV [SDE2]",
    "Result": 5.84
  }
]
